B1: SAT2 (parent)
chain: GYGIYYFIYSTWKGRTIYLEDIYV

# Variants of: B1
# measurement_protocol: protein stability index of a GFP-peptide fusion (GPS, HEK-293T) (PSI 1-6); higher = more stable;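 further: lentivirally expressed fusions sorted by FACS into six bins by GFP to DsRed ratio, PSI derived from sequencing read proportions per bin multiplied by bin number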
# experimental_parameters: c terminus: a fixed tail appended
The label depends only on protein stability index: Criterion met if it is at least 3, Criterion not met if it is smaller.

>  <var>
Y6L

>  <label_class>
Criterion not met

$$$$

Does protein stability index meet or surpass 3 for Y5I ?
Criterion not met

Does protein stability index meet or surpass 3 for I8E ?
Criterion met

Does protein stability index meet or surpass 3 for Y2C ?
Criterion not met

Does protein stability index meet or surpass 3 for Y6A ?
Criterion not met

Does protein stability index meet or surpass 3 for G14Y ?
Criterion met

Does protein stability index meet or surpass 3 for Y9S ?
Criterion not met

Origin of the recorded values: the supplement of paper PMC10567573
